// provenance: ChEMBL document CHEMBL1140194

Overview of recorded MIC for various molecules
system: Staphylococcus aureus; test: Antimicrobial activity against Staphylococcus aureus ATCC 25923 after 16 to 18 hrs by serial dilution method; type: functional
# value in µg/mL; strip the unit string

[ask] Entry COc1ccc(-n2cc(C(=O)c3ccc(C)cc3)c(-c3ccc([N+](=O)[O-])s3)n2)cc1 has what MIC?
[reply] 0.25

[ask] Entry COc1ccc(-n2cc(C(=O)c3ccccc3)c(-c3ccc([N+](=O)[O-])s3)n2)cc1 has what MIC?
[reply] 0.25

====

system: Pseudomonas aeruginosa; assay: Antimicrobial activity against sPseudomonas aeruginosa ATCC 27853 after 16 to 18 hrs by serial dilution method; format: functional
endpoint: MIC (µg/mL)
# value in µg/mL; strip the unit string

Known results for compounds:
[ask] Entry COc1ccc(-n2cc(C(=O)c3ccc(C)cc3)c(-c3ccc([N+](=O)[O-])s3)n2)cc1 has what MIC?
[reply] 0.25

[ask] Entry COc1ccc(-n2cc(C(=O)c3ccc(Cl)cc3)c(-c3ccc([N+](=O)[O-])s3)n2)cc1 has what MIC?
[reply] 0.25

[ask] Entry Cc1ccc(C(=O)c2cn(-c3ccc(C)cc3)nc2-c2ccc([N+](=O)[O-])s2)cc1 has what MIC?
[reply] 0.125

New cases:
[ask] Entry Cc1ccc(C(=O)c2cn(-c3ccccc3)nc2-c2ccc([N+](=O)[O-])s2)cc1 has what MIC?
[reply] 0.25

[ask] Entry O=C(c1ccc(Cl)cc1)c1cn(-c2ccccc2)nc1-c1ccc([N+](=O)[O-])s1 has what MIC?
[reply] 0.125

[ask] Entry COc1ccc(-n2cc(C(=O)c3ccccc3)c(-c3ccc([N+](=O)[O-])s3)n2)cc1 has what MIC?
[reply] 0.25

[ask] Entry Cc1ccc(-n2cc(C(=O)c3ccc(Cl)cc3)c(-c3ccc([N+](=O)[O-])s3)n2)cc1 has what MIC?
[reply] 0.125

[ask] Entry NC(=O)N/N=C/c1ccc([N+](=O)[O-])o1 has what MIC?
[reply] 0.25

[ask] Entry Cc1ccc(-n2cc(C(=O)c3ccccc3)c(-c3ccc([N+](=O)[O-])s3)n2)cc1 has what MIC?
[reply] 0.25

[ask] Entry COc1ccc(C(=O)c2cn(-c3ccccc3)nc2-c2ccc([N+](=O)[O-])s2)cc1 has what MIC?
[reply] 0.25

[ask] Entry O=C(c1ccccc1)c1cn(-c2ccccc2)nc1-c1ccc([N+](=O)[O-])s1 has what MIC?
[reply] 0.25
